target: human GLP-1 receptor (human, UniProt P43220 24-463); assay: cell-based or functional assay
Bridge positions count the residues as written; N and C are the ends. Square brackets hold non-standard residues; d marks the D form. Ends that are not written are not given here. * marks the point of attachment. Acetyl(2-(4-imidazolyl)) = O=C(Cc1c[nH]cn1)*; Aib = CC(C)(N)C(=O)O
Respond with criterion met for In Vitro Activity Compared to Native Peptide (%) vs. GLP-1 (relative titer from cAMP EC50) values of 30% and above, criterion not met for values below.

Consider the worked cases shown below.
[[record]]
binder = "H[Aib]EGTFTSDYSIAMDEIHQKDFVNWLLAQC (lactam 16-20) [trigonal agonist of SEQ ID NO: 14]"
category = "criterion met"

[[record]]
binder = "H[Aib]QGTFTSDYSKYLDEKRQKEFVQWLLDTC (bridge 16-20; not fully specified (bridges)) [trigonal agonist of SEQ ID NO: 13]"
category = "criterion met"

[[record]]
binder = "H[Aib]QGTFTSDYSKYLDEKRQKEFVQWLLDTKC (bridge 16-20; not fully specified (bridges)) [trigonal agonist of SEQ ID NO: 33]"
category = "criterion met"

[[record]]
binder = "H[Aib]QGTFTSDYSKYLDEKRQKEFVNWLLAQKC (bridge 16-20; not fully specified (bridges)) [trigonal agonist of SEQ ID NO: 6]"
category = "criterion not met"

[[record]]
binder = "H[Aib]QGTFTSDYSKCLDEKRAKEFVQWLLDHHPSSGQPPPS (bridge 16-20; not fully specified (bridges)) [trigonal agonist of SEQ ID NO: 20]"
category = "criterion met"

[[record]]
binder = "Y[Aib]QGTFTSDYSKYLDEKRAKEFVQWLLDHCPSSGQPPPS (bridge 16-20; not fully specified (bridges); ends not checked) [trigonal agonist of SEQ ID NO: 40]"
category = "criterion met"


Is the recorded value of In Vitro Activity Compared to Native Peptide (%) vs. GLP-1 (relative titer from cAMP EC50) equal to or greater than 30% for this binder? Y[Aib]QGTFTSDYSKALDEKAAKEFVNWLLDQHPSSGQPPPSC (bridge 16-20; not fully specified (bridges)) [trigonal agonist of SEQ ID NO: 45]
criterion not met

Is In Vitro Activity Compared to Native Peptide (%) vs. GLP-1 (relative titer from cAMP EC50) at least 30%? Consider Y[Aib]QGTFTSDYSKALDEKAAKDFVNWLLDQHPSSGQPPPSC (bridge 16-20; not fully specified (bridges)) [trigonal agonist of SEQ ID NO: 46]
criterion not met

Does the binder [Acetyl(2-(4-imidazolyl))][Aib]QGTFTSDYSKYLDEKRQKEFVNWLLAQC (bridge 16-20; not fully specified (bridges)) [trigonal agonist of SEQ ID NO: 37] have recorded In Vitro Activity Compared to Native Peptide (%) vs. GLP-1 (relative titer from cAMP EC50) that is 30% or more?
criterion not met
